System: Shigella flexneri
protocol: growth AUC normalised to DMSO control (fraction of control); higher = less growth inhibition, active = hit call of the paper
experimental_parameters: 20 µM
Return exactly one item of active, inactive

These recorded examples may help you get a feel for the data.
NC(=O)c1ncn([C@@H]2O[C@H](CO)[C@@H](O)[C@H]2O)n1; inactive
CC(C)(C)NCC(O)COc1cccc2c1CC(O)C(O)C2 (stereo unspecified); inactive

Ask: Which outcome did this test record for the molecule "CC(=O)N[C@@H](CS)C(=O)O" ?
Reply: inactive

Ask: Which outcome did this test record for the molecule CCC(=O)OCC(=O)[C@@]1(OC(=O)CC)[C@@H](C)C[C@H]2[C@@H]3CCC4=CC(=O)C=C[C@]4(C)[C@@]3(Cl)[C@@H](O)C[C@@]21C [Beclomethasone dipropionate] ?
Reply: inactive

###

Tested on: Yersinia pseudotuberculosis
protocol: growth AUC normalised to DMSO control (fraction of control); higher = less growth inhibition, active = hit call of the paper
experimental_parameters: 20 µM
Counter-ions that a name gives are not always drawn.
measure_name: growth AUC normalised to DMSO control

Ask: Sample C[N+]1(CCCCC[N+]2(C)CCCC2)CCCC1 [Pentolinium bitartrate] — what was its growth AUC normalised to DMSO control?
Reply: 0.994 (inactive)

Ask: Sample "CN[C@H]1CC[C@@H](c2ccc(Cl)c(Cl)c2)c2ccccc21" — what was its growth AUC normalised to DMSO control?
Reply: 1.01 (inactive)

Ask: Sample Cc1cc(C)nc(NS(=O)(=O)c2ccc(N)cc2)n1 [Sulfamethazine sodium salt] — what was its growth AUC normalised to DMSO control?
Reply: 1.01 (inactive)

Ask: Sample "O=C1NCN(c2ccccc2)C12CCN(CCCC(c1ccc(F)cc1)c1ccc(F)cc1)CC2" — what was its growth AUC normalised to DMSO control?
Reply: 1.01 (inactive)

Ask: Sample C#CCN(C)CCCOc1ccc(Cl)cc1Cl [Clorgyline hydrochloride] — what was its growth AUC normalised to DMSO control?
Reply: 0.994 (inactive)

###

Item-by-item account of growth AUC normalised to DMSO control
Tested on: Yersinia pseudotuberculosis
protocol: growth AUC normalised to DMSO control (fraction of control); higher = less growth inhibition, active = hit call of the paper
experimental_parameters: 20 µM
Where a name gives a salt, the structure may show the parent alone.

Worked cases, answers included:
O=c1[nH]c(=O)n([C@H]2C[C@H](O)[C@@H](CO)O2)cc1C(F)(F)F; 0.997 (inactive)
CCN(CC)CCNC(C(=O)OCCC(C)C)c1ccccc1 (stereo not given) [Camylofine chlorhydrate]; 0.997 (inactive)
CNC(C)CCC=C(C)C (stereo not given) [Isometheptene mucate]; 1 (inactive)

Ask: Sample "CC[C@H]1OC(=O)[C@H](C)[C@@H](O[C@H]2C[C@@](C)(OC)[C@@H](O)[C@H](C)O2)[C@H](C)[C@@H](O[C@@H]2O[C@H](C)C[C@H](N(C)C)[C@H]2O)[C@](C)(O)C[C@@H](C)[C@@H]2N[C@@H](COCCOC)O[C@H]([C@H]2C)[C@]1(C)O" — what was its growth AUC normalised to DMSO control?
Reply: 1 (inactive)

Ask: Sample C=C[C@H]1CN2CC[C@H]1C[C@@H]2[C@@H](O)c1ccnc2ccc(OC)cc12 [Quinidine hydrochloride monohydrate] — what was its growth AUC normalised to DMSO control?
Reply: 0.991 (inactive)

Ask: Sample CCCCC(O)c1ccccc1 (stereo not given) — what was its growth AUC normalised to DMSO control?
Reply: 0.995 (inactive)

###

Tested on: S. enterica typhimurium WT;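 also: active when median AUC fell below 0.1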
protocol: growth AUC normalised to DMSO control (median) (fraction of control); higher = less growth inhibition, active = hit call of the paper
experimental_parameters: 20 µM
Could you label it yes (1) if measured growth AUC normalised to DMSO control is 1 or higher, and no (0) otherwise?

Ask: Confirm if growth AUC normalised to DMSO control reported for the compound C=C1c2c(Cl)ccc(O)c2C(O)=C2C(=O)[C@]3(O)C(O)=C(C(N)=O)C(=O)[C@@H](N(C)C)[C@@H]3[C@@H](O)[C@H]12.O=C(O)c1cc(S(=O)(=O)O)ccc1O [Meclocycline sulfosalicylate] is 1 or above.
Reply: no (0)

Ask: Confirm if growth AUC normalised to DMSO control reported for the compound CC(=O)O[C@]1(C(C)=O)CC[C@H]2[C@@H]3C=C(C)C4=CC(=O)CC[C@@H]4[C@H]3CC[C@@]21C [Nomegestrol acetate] is 1 or above.
Reply: yes (1)

Ask: Confirm if growth AUC normalised to DMSO control reported for the compound C=CC1=C(C(=O)O)N2C(=O)[C@@H](NC(=O)/C(=N\OCC(=O)O)c3csc(N)n3)[C@H]2SC1 [Cefixime] is 1 or above.
Reply: no (0)

###

Test system: Salmonella enterica typhimurium
protocol: growth AUC normalised to DMSO control (fraction of control); higher = less growth inhibition, active = hit call of the paper
experimental_parameters: 20 µM
Structures can show the parent of a compound that is named as a salt.
measure_name: growth AUC normalised to DMSO control
I'd appreciate a reply containing only the number, no unit.

Worked cases, answers included:
Clc1ccc(Nc2nnc(Cc3ccncc3)c3ccccc23)cc1 [Vatalanib]; 1.01
CC(=O)O[C@]1(C(C)=O)CC[C@H]2[C@@H]3C=C(Cl)C4=CC(=O)CC[C@]4(C)[C@H]3CC[C@@]21C [Chlormadinone acetate]; 0.989
CC(C(=O)O)c1ccc(-c2ccccc2)c(F)c1 (configuration not stated) [Flurbiprofen]; 0.986

Ask: Hi! What's the reported growth AUC normalised to DMSO control for Nc1cc(-c2ccncc2)c[nH]c1=O [Amrinone] on Salmonella enterica typhimurium?
Reply: 1.01

Ask: Hi! What's the reported growth AUC normalised to DMSO control for Cc1cc2c(cc1S(N)(=O)=O)S(=O)(=O)CCC2 [Meticrane] on Salmonella enterica typhimurium?
Reply: 1.01

Ask: Hi! What's the reported growth AUC normalised to DMSO control for Nc1nc(=O)c2nc(CNc3ccc(C(=O)N[C@@H](CCC(=O)O)C(=O)O)cc3)cnc2[nH]1 [Folic acid] on Salmonella enterica typhimurium?
Reply: 0.991

Ask: Hi! What's the reported growth AUC normalised to DMSO control for CCCc1cc(=O)[nH]c(=S)[nH]1 [Propylthiouracil] on Salmonella enterica typhimurium?
Reply: 0.987

Ask: Hi! What's the reported growth AUC normalised to DMSO control for CCOC(=O)/C=C(C)/C=C/C=C(C)/C=C/c1c(C)cc(OC)c(C)c1C [Etretinate] on Salmonella enterica typhimurium?
Reply: 1.01

Ask: Hi! What's the reported growth AUC normalised to DMSO control for CN(C)C(=N)NC(=N)N [Metformin hydrochloride] on Salmonella enterica typhimurium?
Reply: 1

Ask: Hi! What's the reported growth AUC normalised to DMSO control for C[C@]12CC[C@@H]3c4ccc(O)cc4CC[C@H]3[C@@H]1CC[C@@H]2O [Estradiol-17 beta] on Salmonella enterica typhimurium?
Reply: 1.02

Ask: Hi! What's the reported growth AUC normalised to DMSO control for COC(=O)Nc1nc2cc(C(=O)c3ccc(F)cc3)ccc2[nH]1 [Flubendazol] on Salmonella enterica typhimurium?
Reply: 1.02

###

System: Shigella flexneri
protocol: growth AUC normalised to DMSO control (fraction of control); higher = less growth inhibition, active = hit call of the paper
experimental_parameters: 20 µM
Where a name gives a salt, the structure may show the parent alone.
measure_name: growth AUC normalised to DMSO control
I'd appreciate a reply containing only the number, no unit.

O=C(c1ccc(OCCN2CCCCC2)cc1)c1c(-c2ccc(O)cc2)sc2cc(O)ccc12 [Raloxifene hydrochloride]; 0.992
CCn1cc(C(=O)O)c(=O)c2cc(F)c(N3CCNCC3)nc21 [Enoxacin]; 0.0451
C#C[C@]1(O)CC[C@H]2[C@@H]3[C@H](C)CC4=C(CCC(=O)C4)[C@H]3CC[C@@]21C [Tibolone]; 0.971
OCCN1CCN(CC/C=C2/c3ccccc3Sc3ccc(Cl)cc32)CC1 [Zuclopenthixol dihydrochloride]; 0.972
C#C[C@]1(O)CC[C@H]2[C@@H]3CCC4=Cc5oncc5C[C@]4(C)[C@H]3CC[C@@]21C [Danazol]; 0.971
COCCOC(=O)C1=C(C)NC(C)=C(C(=O)OC(C)C)C1c1cccc([N+](=O)[O-])c1 (stereo not given) [Nimodipine]; 0.939

Ask: Hi! What's the reported growth AUC normalised to DMSO control for CCCc1nc(C)c2c(=O)nc(-c3cc(S(=O)(=O)N4CCN(CC)CC4)ccc3OCC)[nH]n12 [Vardenafil] on Shigella flexneri?
Reply: 1

Ask: Hi! What's the reported growth AUC normalised to DMSO control for C[C@]12CCC(=O)C=C1CC[C@@H]1[C@@H]2[C@@H](O)C[C@@]2(C)[C@H]1CC[C@]2(O)C(=O)CO [Hydrocortisone] on Shigella flexneri?
Reply: 0.969

Ask: Hi! What's the reported growth AUC normalised to DMSO control for CCOC(=O)/C=C(C)/C=C/C=C(C)/C=C/c1c(C)cc(OC)c(C)c1C [Etretinate] on Shigella flexneri?
Reply: 1.03

Ask: Hi! What's the reported growth AUC normalised to DMSO control for CC[N+](C)(C)c1cccc(O)c1 [Edrophonium chloride] on Shigella flexneri?
Reply: 1

Ask: Hi! What's the reported growth AUC normalised to DMSO control for CCCN(CCC)CCc1cccc2c1CC(=O)N2 [Ropinirole hydrochloride] on Shigella flexneri?
Reply: 1.02
